molecular target: SUMO-2 (Homo sapiens, UniProt P55854); construct: gene SUMO3; recombinant, untagged as far as told, pET11, E. coli (NMR, 15N-labelled); for titrations single Cys labelled with MFM probe; experiment: fluorescence titration of MFM-labelled protein with SUVs, global fit; format: binding
Sequence (P55854 1-92): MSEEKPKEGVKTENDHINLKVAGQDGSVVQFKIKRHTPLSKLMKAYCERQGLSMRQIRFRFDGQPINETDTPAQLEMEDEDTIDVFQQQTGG
ASSAY METRIC: Kd (µM)
Answers are plain numbers, in µM.

Query: Return the recorded Kd value; entry: CCCCCCCC/C=C\CCCCCCCC(=O)O[C@H](COC(=O)CCCCCCCCCCCCCCC)COP(=O)([O-])OCC[N+](C)(C)C [POPC]
Reply: 180
